- system tested: UniProtKB Q9UKE5
- Sequence (Q9UKE5 1-314): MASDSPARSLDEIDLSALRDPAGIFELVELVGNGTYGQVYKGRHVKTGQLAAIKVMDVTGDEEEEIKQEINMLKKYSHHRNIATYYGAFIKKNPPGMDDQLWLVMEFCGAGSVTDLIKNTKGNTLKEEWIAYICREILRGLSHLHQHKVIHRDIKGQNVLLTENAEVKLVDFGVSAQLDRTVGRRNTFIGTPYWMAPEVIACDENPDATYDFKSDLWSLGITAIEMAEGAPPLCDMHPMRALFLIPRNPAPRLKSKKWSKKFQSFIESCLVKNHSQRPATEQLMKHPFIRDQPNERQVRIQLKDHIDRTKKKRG
- experiment: Surface plasmon resonance, binding of thiopeptides to immobilized biotinylated TNIK (single-cycle, then multicycle kinetics)
- Set-up: Biotinylated TNIK (kinase domain, amino acids 1-314;); biotin (biotinylated protein); purchased Carna Biosciences (Kobe, Japan)
- details: average from three multicycle kinetic experiments; 1:1 binding model; 25 °C
Numbered stars: 1 amine (or outer) side, 2 acyl side, 3 side chain; on linkers, the order of the positions; unused ones are H or OH. Bridge positions count the residues as written; N and C are the ends. Square brackets hold non-standard residues; d marks the D form. Peptide text beside a SMILES is read from it. X1 = C=C(N[*:2])c1nc(-c2nc(-c3nc(C(=O)OC)cs3)ccc2C(=O)[*:1])cs1; NMePhe(4-NO2) = CN[C@@H](Cc1ccc([N+](=O)[O-])cc1)C(=O)O; Tic(7-OH) = O=C(O)[C@@H]1Cc2ccc(O)cc2CN1; NMeA = CN[C@@H](C)C(=O)O; Dhb = C/C=C(\N)C(=O)O; Dha = C=C(N)C(=O)O; Sar = CNCC(=O)O
metric: KD (binding affinity to TNIK)

INSERT INTO results (compound, metric, readout_value) VALUES
  ('C=C1NC(=O)[C@H](C)N(C)C(=O)[C@H](CCCNC(=N)N)NC(=O)CN(C)C(=O)/C(=C/C)NC(=O)[C@H](CCCNC(=N)N)NC(=O)[C@H](CC(C)C)NC(=O)[C@H](Cc2c[nH]c3ccccc23)NC(=O)[C@H](Cc2c[nH]c3ccccc23)NC(=O)c2ccc(-c3nc(C(=O)OC)cs3)nc2-c2csc(n2)C(=C)NC(=O)CNC(=O)/C(=C/C)NC(=O)[C@H](Cc2ccc([N+](=O)[O-])cc2)N(C)C(=O)[C@H]([C@@H](C)O)NC1=O [hTP8] (WWLR[Dhb][Sar]R[NMeA][Dha]T[NMePhe(4-NO2)][Dhb]G; linker N-C via X1)', 'KD (binding affinity to TNIK)', 'single-digit'),
  ('C=C1NC(=O)[C@H](CC(C)C)NC(=O)[C@H](CC(N)=O)NC(=O)[C@H](CO)NC(=O)[C@H](CCCNC(=N)N)NC(=O)[C@H](CCCNC(=N)N)NC(=O)CN(C)C(=O)[C@H](C)N(C)C(=O)[C@H](CC(C)C)NC(=O)[C@H](CCCNC(=N)N)NC(=O)[C@@H]2CCCN2C(=O)[C@@H]2Cc3ccc(O)cc3CN2C(=O)[C@H]([C@@H](C)O)NC(=O)[C@H](Cc2c[nH]c3ccccc23)NC(=O)c2ccc(-c3nc(C(=O)OC)cs3)nc2-c2csc1n2 [hTP15] (WT[Tic(7-OH)]PRL[NMeA][Sar]RRSNL; linker N-C via X1)', 'KD (binding affinity to TNIK)', 'single-digit');

----------
Exercise: for every item that follows, state its recorded half-life at 15 µM.
- System: trypsin
- Construct: purchased Thermo Fisher
- experiment: Stability to agarose-immobilized trypsin (LC/MS)
- Format: in vitro ADME
- details: isolated enzyme trypsin, pH 7.9
- Excerpt: 2.10. Thiopeptide metabolic stability experiments Stability to trypsin. […]
Numbered stars: 1 amine (or outer) side, 2 acyl side, 3 side chain; on linkers, the order of the positions; unused ones are H or OH. Bridge positions count the residues as written; N and C are the ends. Square brackets hold non-standard residues; d marks the D form. Peptide text beside a SMILES is read from it. X1 = C=C(N[*:2])c1nc(-c2nc(-c3nc(C(=O)OC)cs3)ccc2C(=O)[*:1])cs1; NMePhe(4-NO2) = CN[C@@H](Cc1ccc([N+](=O)[O-])cc1)C(=O)O; LeuThz(4-CO) = CC(C)C[C@H](N[*:1])c1nc(C(=O)[*:2])cs1; NMeA = CN[C@@H](C)C(=O)O; Dhb = C/C=C(\N)C(=O)O; Dha = C=C(N)C(=O)O; Sar = CNCC(=O)O
Numbers only, in h.

INSERT INTO measurements (molecule, readout_value) VALUES
  ('C=C1NC(=O)[C@H](C)N(C)C(=O)[C@H](CCCNC(=N)N)NC(=O)CN(C)C(=O)/C(=C/C)NC(=O)[C@H](CCCNC(=N)N)NC(=O)[C@H](CC(C)C)NC(=O)[C@H](Cc2c[nH]c3ccccc23)NC(=O)[C@H](Cc2c[nH]c3ccccc23)NC(=O)c2ccc(-c3nc(C(=O)OC)cs3)nc2-c2csc(n2)C(=C)NC(=O)CNC(=O)/C(=C/C)NC(=O)[C@H](Cc2ccc([N+](=O)[O-])cc2)N(C)C(=O)[C@H]([C@@H](C)O)NC1=O [hTP8] (WWLR[Dhb][Sar]R[NMeA][Dha]T[NMePhe(4-NO2)][Dhb]G; linker N-C via X1)', 4.9);

# context switch: different molecule, same half-life at 15 µM
(Q) # query: half-life at 15 µM of entry C=C1NC(=O)[C@H](Cc2ccc([N+](=O)[O-])cc2)N(C)C(=O)CN(C)C(=O)CNC(=O)[C@H](Cc2c[nH]c3ccccc23)NC(=O)c2ccc(-c3nc(C(=O)OC)cs3)nc2-c2csc(n2)C(=C)NC(=O)c2csc(n2)[C@H](CC(C)C)NC(=O)[C@H](CO)NC(=O)[C@H](CCCNC(=N)N)NC(=O)[C@H](CC(N)=O)NC(=O)CN(C)C(=O)[C@H](CC(C)C)NC(=O)[C@H](CC(N)=O)NC1=O [hTP6] (WG[Sar][NMePhe(4-NO2)][Dha]NL[Sar]NRS[LeuThz(4-CO)]; linker N-C via X1)
(A) 1.01
